Biological target: T1, Human soluble IL-6R (human, UniProt P08887 20-358)
T1 construct: Soluble recombinant form; biotinylated in some assays; also called hIL-6R; human IL-6R
T1 sequence (looked up): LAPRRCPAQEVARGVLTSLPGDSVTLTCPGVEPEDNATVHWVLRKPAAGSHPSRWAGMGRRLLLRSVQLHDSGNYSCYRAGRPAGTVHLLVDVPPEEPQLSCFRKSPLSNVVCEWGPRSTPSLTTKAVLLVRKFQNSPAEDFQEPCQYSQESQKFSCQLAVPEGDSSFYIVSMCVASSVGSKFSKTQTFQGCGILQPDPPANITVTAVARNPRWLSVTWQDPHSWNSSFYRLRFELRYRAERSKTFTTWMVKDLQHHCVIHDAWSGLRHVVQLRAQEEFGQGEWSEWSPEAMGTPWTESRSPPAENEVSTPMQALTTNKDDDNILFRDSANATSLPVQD
Assay: summary table C-13 of Nanobody characteristics, Kd on IL-6R
pKd: −log10 of the molar value.

{"columns": ["binder", "pKd"],
 "data": [
  ["IL6R09 (VHH, also called PMP34G9; not shown: C-terminal c-myc and (His)6 tags) VHH: EVQLVESGGGLVQAGGSLRLSCAASGRTSSSYDMTWYRQVPGKEREFVAVISWSGGSTYYADSVKGRFTISRDNAKNTVYLQMNSLKPEDTAIYYCNAYTGGGDDYWGQGTQVTVSS", 8.70],
  ["IL6R08 (VHH, also called PMP34A12; not shown: C-terminal c-myc and (His)6 tags) VHH: EVQLVESGGGLVQPGGSLRLSCVASGFSLDYYVIGWFRQAPGKEREGVSCISSSDGSTYYADSVKGRFTISRDNAKNTVYLQMNSLKPEDTAVYYCAADLLRTPEFCVDSAPYDYWGQGTQVTVSS", 7.99]
]}
